Hello, the source for this data is patent US7642269B2, in case you need it.

Target: H^+/K^+-ATPase (Sus scrofa)
Construct: used as an enzyme source of the in vitro enzyme reaction assay of proton pump; from tissue; host or cells: hog gastric fundic mucosa (membrane vesicles, lyophilized)
Sequence (P19156 2-1034 limits assumed): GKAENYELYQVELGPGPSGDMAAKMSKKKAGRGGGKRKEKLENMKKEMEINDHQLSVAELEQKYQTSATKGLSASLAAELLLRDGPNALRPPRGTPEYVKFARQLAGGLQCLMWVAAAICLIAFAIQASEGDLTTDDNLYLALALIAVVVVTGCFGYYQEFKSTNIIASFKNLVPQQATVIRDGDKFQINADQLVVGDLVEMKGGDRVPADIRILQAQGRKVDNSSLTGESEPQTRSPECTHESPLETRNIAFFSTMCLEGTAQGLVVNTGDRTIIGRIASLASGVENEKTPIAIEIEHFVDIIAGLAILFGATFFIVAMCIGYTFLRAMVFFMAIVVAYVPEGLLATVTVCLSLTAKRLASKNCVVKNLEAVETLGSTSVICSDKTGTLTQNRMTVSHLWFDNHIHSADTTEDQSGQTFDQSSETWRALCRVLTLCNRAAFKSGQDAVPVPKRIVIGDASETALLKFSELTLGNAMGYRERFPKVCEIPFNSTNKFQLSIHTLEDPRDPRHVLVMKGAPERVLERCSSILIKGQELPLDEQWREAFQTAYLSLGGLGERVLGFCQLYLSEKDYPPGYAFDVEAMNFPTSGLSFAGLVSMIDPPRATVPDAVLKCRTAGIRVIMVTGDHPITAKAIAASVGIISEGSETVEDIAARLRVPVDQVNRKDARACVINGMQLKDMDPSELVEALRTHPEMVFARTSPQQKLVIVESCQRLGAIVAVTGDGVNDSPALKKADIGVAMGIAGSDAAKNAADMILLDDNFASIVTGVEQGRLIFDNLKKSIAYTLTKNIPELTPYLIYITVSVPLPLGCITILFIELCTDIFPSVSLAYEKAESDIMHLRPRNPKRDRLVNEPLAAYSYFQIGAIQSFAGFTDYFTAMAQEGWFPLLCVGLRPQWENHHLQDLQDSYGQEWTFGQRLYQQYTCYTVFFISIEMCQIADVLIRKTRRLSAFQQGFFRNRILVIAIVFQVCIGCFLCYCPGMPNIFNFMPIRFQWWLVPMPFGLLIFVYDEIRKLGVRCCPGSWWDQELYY
Sequence (P18434 whole entry partner): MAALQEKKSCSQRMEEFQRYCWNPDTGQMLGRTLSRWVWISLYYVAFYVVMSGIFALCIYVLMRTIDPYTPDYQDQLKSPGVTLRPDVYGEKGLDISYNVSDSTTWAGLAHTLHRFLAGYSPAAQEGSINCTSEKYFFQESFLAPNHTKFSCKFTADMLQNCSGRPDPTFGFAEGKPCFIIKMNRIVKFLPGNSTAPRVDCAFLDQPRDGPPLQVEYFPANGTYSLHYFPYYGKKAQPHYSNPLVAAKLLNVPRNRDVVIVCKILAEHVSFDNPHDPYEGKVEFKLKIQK
Assay: Inhibitory effects on proton pump (H^+/K^+-ATPase) activity, hog gastric vesicles
Format: biochemical
Details: K^+ stimulated H^+/K^+-ATPase activity, hog gastric vesicle, Pi measured at 620 nm
Counter-ions that a name gives are not always drawn.
parameter: IC50 (nM)

Solved entries:
• CC(=O)OCCn1c(C)c(C)c2nccc(OCc3ccc(Cl)cc3)c21 [Example 85, hydrochloride] = 170
• CCOc1ccccc1COc1ccnc2c(C)c(C)n(CC3CCC3)c12 [Example 163, hydrochloride] = 1010
• CCn1c(C)c(C)c2nccc(OCc3ccc(Cl)cc3)c21 [Example 90, hydrochloride] = 140

(a) COCCn1c(C)c(C)c2nccc(OCc3cc(F)cc(F)c3)c21 [Example 181, hydrochloride]
(b) Cc1nc2c(C)c(C)n(Cc3ccccc3)c2c(NCc2ccc(F)cc2)c1C [Example 268, hydrochloride]
Request: Could you point out whether the larger IC50 belongs to a or to b ? API: response body contains the label of the selected item.
Result: a
(a: 4710 nM, b: 1250 nM)
